Entry source: the nanobody polyreactivity screen of Harvey et al. (2022)

Assay: yeast display, Sf9 membrane polyspecificity reagent, FACS + sequencing; frameworks hold sequencing errors

record.sequence	polyreactivity (PSR sort gate)
QVQLVESGGGLVQAGGILRLSCAASGSIFAHYTMGWYRKAPGKERELVAAISGSGGSTYYADSVKGRFTISRDNAKNTVYLQMNSLKPEVTAVYYCNKRYRPVGPYDYWGQGTQVTVSS	high polyreactivity
QVQLVESGGGLVQAGASLRLSCAASGIIFPRYAMGWSRQAPGKERDLVAAISYSGGSTYYADSVKGRFTISRDNAKNTVYLQMNSLKPEDPAVYYCAAKWGWKVGYSYYYWGQGTQVTVSS	high polyreactivity
QVQLVESGGGLVQAGGSLRLSCAASGFTLPANGMGWYRQAPGKERQLVAAISFIAGSTYYADSVKGRFTISRDNAKNTVYLQMKSLKPEDTAVYYCATQFPPSTFYDYWGQGTQVTVSS	low polyreactivity
QVQLVESGGGLVQAGGILRLSCAASGLIFTYYAMGWYRQAPWKERELLAAINYSGGSTYYADSVKGRFTISRDNAKNTVYLQMNSLKPEDTAVYYCNAGYGEHPLSGYEYWGQSTQVTVSS	low polyreactivity
QVQRVESGGGLVQAGGSLRLSCAASGSIFSSNVMGWYRQAPGKEREIVAAITTGGSTNYADSVKGRFTISRDNAKNTVYLQMYCLKREDTAFYYCSFSYGYYLFVDWGYGCWGQGSQVTVSS	low polyreactivity
QVQLVESGGGLVQAGGSLRLSCGASGSIFPDYAMGWYRQAPGKERELVAAITWSGGSTYYADSVKGRFTISRDNAKNTVNLQMNSLKPEDTAVYYCAAQLDPEWRGYFDQYGYDYWGQGTQVTVST	low polyreactivity
QVQLVESGGGLVQAGGSLRLSCAASGSNFVEYAMGWYRQAPGKERELVAGISSGGITSYADSVKGRFTISRDNAKNTVYLQMNSLKPEDTAVYYCATDPYKWFYSSYYLLQEVEYWGQGTQVTVSS	low polyreactivity
QVQLVESVGGLVQAGGILRLSCAPSGSTFDVYAMGWYRQAPAKERELVAAISWTGGSTYYADSVKGRFTISRDNAKNTVYLQMNRLKPEDTAVYYCAAYEIQTPRIAHYVGCGRDYLGQGTQVTVSS	high polyreactivity

----------
Experiment: yeast display, Sf9 membrane polyspecificity reagent, FACS + sequencing; frameworks hold sequencing errors
result.type: polyreactivity (PSR sort gate)

record.sequence	value
QVQLVESGGGLVQAGGILRLSCAASGSTLTSNDMGWYRQAPGKERELFADITWSGGDTYYADSVKGRFTISRDNAKYTVYLQMNSLKPEDTAVYYCAAEDPNYRPFAYGIEYDYWGQGTQVTVSS	low polyreactivity
QVQLVDSGGVLVQAGGSLRLSCAASGGTFRTYAMGWYRQAPGKERELVAAITWRGGSTYYADSVKGRFTISRDNAKNTVYLQMNSLKPEDTAVYNCAARVAYQWSFYKYDYWGQGTQVTVSS	high polyreactivity
QVQLVESGGGLVQAGGSLRLSCADSGSIYHNYDMGWYRQAPGKEKEFVADISRGGDTIYADSVKGRFSISRDNAKNTVYLQMNSLKPEDTAVYYCNATYWILDSPWWRETFDYWGQGTQVTVSS	low polyreactivity
QVQLVESGGGLVQAGGSLRLSCAASGFIFYYNAMGWYRQAPGKERELVATITSGGSTNYADSVKGRFTISRDNAKNTVYLQMNSLKPEDTAVYYCAAGHSWVYGYDYWGQGTQVTVSS	low polyreactivity
QVQLVESGGGLVQAGGSLRLSCAASGSIFSFYAMVWYRQAPGKERELVADISLTTDSTYADSVKGRFTISRDNAKNTVYLQMNSLKPEDTAVYYCAADFFGTITWYDYWGQGTQVTVSS	low polyreactivity
QVQLVESGGGLVQAGGSLRLSCAASGYIFQRDAMGWYRTAPGKEREFVAAIRYSGGSTYYADSVKGRFTISRDNAKNTVYLQMNCLKPEDTAVYYCAADQRDPWRSAYGYYYWGQGTQVTVSS	high polyreactivity
QVQLVESGGGLVQAGGSLRLSCAASGSIFGAYAMGWYRQAPGKERELVAAISRSGSTTYYADSVKGRFTISRDNAKNTVYLQMNSLKPEDTAVYYCAARWTRFLSSSDYYYWGQGTQVTVSS	high polyreactivity
QVQLVESGGGLVQAGGSLRVSCAASGRTFKYYARGWYRQAPGKARELVAAISGSGGSTYYADSVKGRFTISRDNAKNTVYLQMNSLKPEDTAVYYCAAAGKETSRNAYDSWGQGTQETVSS	high polyreactivity
QVQLVESGGGLVQAGGSLRLSCAASGSIFDYYTMGCYRQAAGKERELVATIRSGDSTNYADSLKGRFTISRDIEMNRVYLQMNSLKPEDTAVYYCAAVDGAYPTLYDYWGQGTQVTVSS	low polyreactivity
QVQLVESGGGLVQAGGSLRLTCAASGSIFLDYAMGWYRQAPAKERELVAGITISGGSTYYADSVKGRFTISRDNAKNTVYLQMNSLKPEDTAVYYCAKVAPRSSSSQEYYYWGQGTQVTVSS	low polyreactivity
QVQLVESGGGLVQAGGSLRLSCAASGSTFDTYAMGWYRQAPGKERELVAAISSGGSTNYADSVKGRFTISRDNAKNTVYLQMNSLKPEDTAVYYCADSNKSVFPVYGTLDEYWGQGTQVTVSS	low polyreactivity
QVQLVESGGGLVQAGGSLRLSCAASGRIFYTYVMGWYRQAPGKERELVAAITRRGGSTNYADSVKGRFTISRDNAKNTVYLQMNSLKPEDTAVYYCAAGTYKGSSVYGMDYWGQGTQVTVSS	high polyreactivity
QDQLVESGGGLVQAGCSLRLSCAASGLIFNYKVMGWYRHAPGKERELVAAISRGGSTYYADSVKGRFTFSRDNAKNTVYLQMNSLKPEDTAVYYCAARYRSRYDYWGQGTQVTVSS	high polyreactivity
QVQLVESGGGLVQAGGSLRLSCAASGSIFATYAMGWYRQAPGKERELVAAITSSDGSTNYADSVKGRFTISRDNAKNTVDLQMNRLKPEDTAVYYCATDAPDRTDSDSGFDAGYDYWGQGTQVTLSS	low polyreactivity
QVQLVESGGGLVQARGSLRLSCAGSGRTFGYYAMGWYRHAPGKERELVAAIDQSDTYYADSVKGRFTISRDNAKITVSLQMNSLKPEDTAVYYCAADGDPSIEDEYWGQGTQVTVSS	high polyreactivity
